- measurement.target: OT receptor (Homo sapiens)
- Sequence (P30559 whole entry): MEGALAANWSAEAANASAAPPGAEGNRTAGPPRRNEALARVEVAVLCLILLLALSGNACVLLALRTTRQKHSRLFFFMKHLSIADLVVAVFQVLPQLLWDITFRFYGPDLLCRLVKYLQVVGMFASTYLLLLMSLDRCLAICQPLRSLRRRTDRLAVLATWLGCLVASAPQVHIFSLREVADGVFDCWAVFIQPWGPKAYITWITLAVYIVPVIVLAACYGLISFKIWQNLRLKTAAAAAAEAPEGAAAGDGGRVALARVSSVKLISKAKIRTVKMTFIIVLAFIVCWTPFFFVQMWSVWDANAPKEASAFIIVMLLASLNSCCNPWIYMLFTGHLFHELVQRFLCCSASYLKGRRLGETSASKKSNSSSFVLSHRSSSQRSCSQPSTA
- test: OT receptor binding (primary binding at 10 μM and Ki)
- test.settings: read-out: OT binding Ki
Reported Ki values for the following compounds.

compound	Ki
CCN(C(=O)C1CCN(c2ncccc2C(F)(F)F)CC1)c1ccc(OC)cc1 [Compound 24]	0.265 µM
COc1ccccc1N(CC1CC1)C(=O)N1CCN(c2ccccc2C)CC1 [Compound 28]	0.051 µM
COc1ccc(N(CC2CC2)C(=O)C2CCN(Cc3ccccc3Cl)C2)cc1 (stereo not drawn) [Compound 35]	0.0374 µM
CCN(C(=O)N1CCN(c2ncccc2Cl)CC1)c1ccc(OC)cc1 [Compound 16]	2.32 µM
CCN(C(=O)N1CCN(c2ncccc2C)CC1)c1ccc(OC)cc1 [Compound 21]	0.204 µM
Cc1ccc(N(CC2CC2)C(=O)N2CCN(c3ccccc3C)CC2)cc1 [Compound 26]	0.0048 µM
COCCN(C(=O)N1CCN(c2ccccc2C)CC1)c1ccc(OC)cc1 [Compound 4]	0.021 µM
Cc1ccccc1N1CCN(C(=O)N(CC2CC2)c2ccc(Cl)cc2)CC1 [Compound 27]	0.0023 µM
COc1ccc(N(CC2CC2)C(=O)N2CCN(c3cc(Cl)ccc3C)CC2)cc1 [Compound 31]	0.006 µM

###

- measurement.target: human Arginine Vasopressin Receptor 1a (AVPR1a) (Homo sapiens)
- Sequence (P37288 whole entry): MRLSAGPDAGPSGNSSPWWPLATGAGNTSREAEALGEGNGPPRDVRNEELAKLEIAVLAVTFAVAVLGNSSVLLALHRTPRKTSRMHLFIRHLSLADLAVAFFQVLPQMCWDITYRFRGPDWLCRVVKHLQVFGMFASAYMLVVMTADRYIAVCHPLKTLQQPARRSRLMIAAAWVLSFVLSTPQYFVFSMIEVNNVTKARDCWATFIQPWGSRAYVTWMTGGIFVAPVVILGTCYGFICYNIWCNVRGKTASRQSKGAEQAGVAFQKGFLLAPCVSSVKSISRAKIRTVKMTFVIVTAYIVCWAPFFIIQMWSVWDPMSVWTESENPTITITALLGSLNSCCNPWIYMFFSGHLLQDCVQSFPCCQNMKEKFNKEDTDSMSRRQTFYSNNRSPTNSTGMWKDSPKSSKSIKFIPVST
- test: cell-based
- test.settings: read-out: V1a-R IC50
pIC50: −log10 of the molar value.
pIC50 vs 7: at or above is rule met, below is rule not met.

compound.structure.string	label
O=C(c1ccc(F)c(F)c1)N1CCC(C(=O)N2CCCCc3cc(Cl)ccc32)CC1	rule not met
Cc1nc(N2CCC(C(=O)N3CCCCc4cc(Cl)ccc43)CC2)ncc1F	rule met
O=C(C1CCN(c2ccc(C(F)(F)F)cn2)CC1)N1CCCCc2cc(Cl)ccc21	rule met
Cc1cc(C)nc(N2CCC(C(=O)N(CC3(C)COC3)c3ccc(Cl)cc3)CC2)n1	rule not met
Cc1cc(Cl)cnc1N1CCC(C(=O)N2CCCCc3cc(Cl)ccc32)CC1	rule met
O=C(N1CCN(c2cc(Cl)cc(Cl)c2)CC1)N1CCCCc2cc(Cl)ccc21	rule not met
O=C(C1CCN(c2ccc(F)cn2)CC1)N1CCCCc2cc(Cl)ccc21	rule met
O=C(N1CCN(c2ccccc2Cl)CC1)N1CCCCc2cc(Cl)ccc21	rule met
N#Cc1ccc(C(=O)N2CCC(C(=O)N3CCCCc4cc(Cl)ccc43)CC2)cc1	rule not met
Cc1cc(Cl)cnc1N1CCC(C(=O)N(CC2CC2)c2ccc(Cl)cc2)CC1	rule met
O=C(C1CCN(c2ncc(F)cn2)CC1)N1CCCCc2cc(Cl)ccc21	rule met
O=C(C1CCN(c2ccnc(Cl)c2)CC1)N1CCCCc2cc(Cl)ccc21	rule not met
N#Cc1ccc(C(=O)N2CCC(C(=O)N3CCCCc4cc(Cl)ccc43)CC2)c(F)c1	rule not met

###

- measurement.target: V2 receptor (Homo sapiens)
- Sequence (P30518 whole entry): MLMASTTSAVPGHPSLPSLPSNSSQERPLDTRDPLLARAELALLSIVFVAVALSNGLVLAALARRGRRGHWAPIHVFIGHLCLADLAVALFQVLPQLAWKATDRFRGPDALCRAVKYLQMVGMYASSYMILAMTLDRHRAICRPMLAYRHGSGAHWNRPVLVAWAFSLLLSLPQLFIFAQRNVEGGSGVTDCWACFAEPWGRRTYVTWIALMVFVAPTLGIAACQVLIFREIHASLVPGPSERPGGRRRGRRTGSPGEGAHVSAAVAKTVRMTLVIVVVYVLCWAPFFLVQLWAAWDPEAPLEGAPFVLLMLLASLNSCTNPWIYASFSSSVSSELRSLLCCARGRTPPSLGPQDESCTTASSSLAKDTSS
Reported Ki values for the following compounds.

compound	measurement.target	Ki
Cc1ccccc1N1CCN(C(=O)N(CC2CC2)c2ccc(OC(F)(F)F)cc2)CC1	V2 receptor (Homo sapiens)	0.159 µM
Cc1ccccc1N1CCN(C(=O)N(CC2CC2)c2ccc(Cl)cc2)CC1	V2 receptor (Homo sapiens)	3.78 µM
COc1ccc(N(CC2CC2)C(=O)N2CCN(c3cc(Cl)ccc3C)CC2)cc1	V2 receptor (Homo sapiens)	7.34 µM
COc1ccc(N(CC2CC2)C(=O)N2CCN(c3ccccc3C(F)(F)F)CC2)cc1	V2 receptor (Homo sapiens)	0.075 µM
COc1ccccc1N(CC1CC1)C(=O)N1CCN(c2ccccc2C)CC1	V2 receptor (Homo sapiens)	5.01 µM
COc1ccc(N(CC2CC2)C(=O)N2CCN(c3ncc(Cl)cc3Cl)CC2)cc1	V2 receptor (Homo sapiens)	0.205 µM
COc1ccccc1N1CCN(C(=O)N(CC2CC2)c2ccc(OC(F)(F)F)cc2)CC1	V2 receptor (Homo sapiens)	1.7 µM
COc1ccc(N(CC2CC2)C(=O)N2CCN(c3ccccc3C)CC2)cc1	V2 receptor (Homo sapiens)	0.708 µM
Cc1ccc(N(CC2CC2)C(=O)N2CCN(c3ccccc3C)CC2)cc1	V2 receptor (Homo sapiens)	1.86 µM
COc1ccc(N(CC2CC2)C(=O)C2CCN(Cc3ccccc3C(F)(F)F)C2)cc1 (stereo not shown)	V2 receptor (Homo sapiens)	0.542 µM

Entry source: patent US20150376198A1
